- experiment: In vitro dissociation in blood plasma of rat
- Format: in vitro ADME, SD rats
- reported-conditions: fresh SD rat plasma, 37° C., 10 min incubation
observation-type: Sampling time/Dissociation percent (%) 10 min
Output spec: scalar in %, unitless text.

Before answering, review these 4 worked examples.
molecule	unit-info	measured
CC(=O)O[C@H]1C(=O)[C@@]2(C)[C@H]([C@H](OC(=O)c3ccccc3)[C@]3(O)C[C@H](OC(=O)[C@H](OC(=O)C(F)CCN(C)C)[C@@H](NC(=O)c4ccccc4)c4ccccc4)C(C)=C1C3(C)C)[C@]1(OC(C)=O)CO[C@@H]1C[C@@H]2O.Cl (some centres unmarked)	%	100
CC(=O)O[C@H]1C(=O)[C@@]2(C)[C@H]([C@H](OC(=O)c3ccccc3)[C@]3(O)C[C@H](OC(=O)[C@H](OC(=O)[C@H](F)CCN(C)C)[C@@H](NC(=O)c4ccccc4)c4ccccc4)C(C)=C1C3(C)C)[C@]1(OC(C)=O)CO[C@@H]1C[C@@H]2O.CS(=O)(=O)O	%	100
CC(=O)O[C@@]12CO[C@@H]1C[C@H](O)[C@@]1(C)C(=O)[C@H](O)C3=C(C)[C@@H](OC(=O)[C@H](OC(=O)[C@H](F)CCN(C)C)[C@@H](NC(=O)OC(C)(C)C)c4ccccc4)C[C@@](O)([C@@H](OC(=O)c4ccccc4)[C@H]21)C3(C)C.CS(=O)(=O)O	%	100
CC(=O)OC1C(=O)C23CC2CC2OCC2(OC(C)=O)C3C(OC(=O)c2ccccc2)C2(O)CC(OC(=O)C(OC(=O)C(F)CC(C)N(C)C)C(NC(=O)OC(C)(C)C)c3ccccc3)C(C)=C1C2(C)C.CS(=O)(=O)O (centres unmarked)	%	100

Read the next record carefully.
Bench note: what Sampling time/Dissociation percent (%) 10 min did CCN(C)C(C)C[C@H](C(=O)O[C@@H](C(=O)O[C@H]1C[C@@]2(O)[C@@H](OC(=O)c3ccccc3)[C@@H]3[C@]4(OC(C)=O)CO[C@@H]4C[C@H](O)[C@@]3(C)C(=O)[C@H](O)C(=C1C)C2(C)C)[C@@H](NC(=O)OC(C)(C)C)c1ccccc1)C(C)(F)F.CS(=O)(=O)O (some centres unmarked) show?
88.4

---

- experiment: In vitro dissociation in blood plasma of rat
- Type: in vitro ADME, SD rats
- reported-conditions: fresh SD rat plasma, 37° C., 2 min incubation
observation-type: Sampling time/Dissociation percent (%) 2 min
Output spec: scalar in %, unitless text.

smiles-entry	unit-info	measured
CC(=O)O[C@@]12CO[C@@H]1C[C@H](O)[C@@]1(C)C(=O)[C@H](O)C3=C(C)[C@@H](OC(=O)[C@H](OC(=O)[C@@H](F)CCN(C)C)[C@@H](NC(=O)OC(C)(C)C)c4ccccc4)C[C@@](O)([C@@H](OC(=O)c4ccccc4)[C@H]21)C3(C)C.Cl	%	56.4

Read the next record carefully.
Bench note: what Sampling time/Dissociation percent (%) 2 min did CC(=O)O[C@H]1C(=O)[C@@]2(C)[C@H]([C@H](OC(=O)c3ccccc3)[C@]3(O)C[C@H](OC(=O)[C@H](OC(=O)[C@@H](F)CCN(C)C)[C@@H](NC(=O)c4ccccc4)c4ccccc4)C(C)=C1C3(C)C)[C@]1(OC(C)=O)CO[C@@H]1C[C@@H]2O.CS(=O)(=O)O show?
62.8

---

- experiment: In vitro dissociation in blood plasma of rat
- Type: in vitro ADME, SD rats
- reported-conditions: fresh SD rat plasma, 37° C., 2 min incubation
Binary classification by Sampling time/Dissociation percent (%) 2 min, with 50% as an inclusive lower bound for T; all other cases are F.

molecule	label-class
COC1C(=O)C2(C)C(OC)CC3OCC3(OC(C)=O)C2C(OC(=O)c2ccccc2)C2(O)CC(OC(=O)C(OC(=O)C(F)CCN(C)C)C(NC(=O)OC(C)(C)C)c3ccccc3)C(C)=C1C2(C)C.Cl (centres unmarked)	F
CCN(CC)CC[C@](C)(C(=O)O[C@@H](C(=O)O[C@H]1C[C@@]2(O)[C@@H](OC(=O)c3ccccc3)[C@@H]3[C@]4(OC(C)=O)CO[C@@H]4C[C@H](OC)[C@@]3(C)C(=O)[C@H](OC)C(=C1C)C2(C)C)[C@@H](NC(=O)OC(C)(C)C)c1ccccc1)C(F)(F)F.CS(=O)(=O)O	T
CCCC(CC(F)(F)C(=O)O[C@@H](C(=O)O[C@H]1C[C@@]2(O)[C@@H](OC(=O)c3ccccc3)[C@@H]3[C@]4(OC(C)=O)CO[C@@H]4C[C@H](O)[C@@]3(C)C(=O)[C@H](O)C(=C1C)C2(C)C)[C@@H](NC(=O)OC(C)(C)C)c1ccccc1)N1CC1.Cl (some centres unmarked)	F

Next:
# check: Sampling time/Dissociation percent (%) 2 min of CC(=O)O[C@@]12CO[C@@H]1C[C@H](O)[C@@]1(C)C(=O)[C@H](O)C3=C(C)[C@@H](OC(=O)[C@H](OC(=O)[C@H](F)CCN(C)C)[C@@H](NC(=O)OC(C)(C)C)c4ccccc4)C[C@@](O)([C@@H](OC(=O)c4ccccc4)[C@H]21)C3(C)C.CS(=O)(=O)O is greater than or equal to 50%
T

---

- Test system: human ovarian cancer SK-OV-3
- reported-conditions: D4; 24 mg/kg, D0-4 IV; nude mice
observation-type: Body weight change (%) D4
Output spec: scalar in %, unitless text.

compound	observation-type	measured
CC(=O)O[C@H]1C(=O)[C@@]2(C)[C@H]([C@H](OC(=O)c3ccccc3)[C@]3(O)C[C@H](OC(=O)[C@H](OC(=O)C(F)CCN(C)C(C)C)[C@@H](NC(=O)c4ccccc4)c4ccccc4)C(C)=C1C3(C)C)[C@]1(OC(C)=O)CO[C@@H]1C[C@@H]2O.Cl (stereo partly drawn)	Body weight change (%) D4	−10.3

Bench note: what Body weight change (%) D4 did CC(=O)O[C@H]1C(=O)[C@@]2(C)[C@H]([C@H](OC(=O)c3ccccc3)[C@]3(O)C[C@H](OC(=O)[C@H](OC(=O)[C@@H](F)CCN(C)C)[C@@H](NC(=O)c4ccccc4)c4ccccc4)C(C)=C1C3(C)C)[C@]1(OC(C)=O)CO[C@@H]1C[C@@H]2O.CS(=O)(=O)O show?
−5.8

Bench note: what Body weight change (%) D4 did CCN(C)CC[C@@H](F)C(=O)O[C@@H](C(=O)O[C@H]1C[C@@]2(O)[C@@H](OC(=O)c3ccccc3)[C@@H]3[C@]4(OC(C)=O)CO[C@@H]4C[C@H](O)[C@@]3(C)C(=O)[C@H](OC(C)=O)C(=C1C)C2(C)C)[C@@H](NC(=O)c1ccccc1)c1ccccc1.CS(=O)(=O)O show?
−7.0

Bench note: what Body weight change (%) D4 did CC(=O)O[C@H]1C(=O)[C@@]2(C)[C@H]([C@H](OC(=O)c3ccccc3)[C@]3(O)C[C@H](OC(=O)[C@H](OC(=O)C(CCN(C)C)C(F)F)[C@@H](NC(=O)c4ccccc4)c4ccccc4)C(C)=C1C3(C)C)[C@]1(OC(C)=O)CO[C@@H]1C[C@@H]2O.Cl (stereo partly drawn) show?
−8.4

---

- experiment: In vitro dissociation in blood plasma of rat
- Assay type: in vitro ADME, SD rats
- reported-conditions: fresh SD rat plasma, 37° C., 5 min incubation
Property: Sampling time/Dissociation percent (%) 5 min; scope: individual compounds
Output spec: scalar in %, unitless text.

compound	unit-info	measured
CO[C@H]1C(=O)[C@]2(C)[C@@H](OC)C[C@H]3OC[C@@]3(OC(C)=O)[C@H]2[C@H](OC(=O)c2ccccc2)[C@]2(O)C[C@H](OC(=O)[C@H](OC(=O)[C@@H](F)CCN(C)C)[C@@H](NC(=O)OC(C)(C)C)c3ccccc3)C(C)=C1C2(C)C.CS(=O)(=O)O	%	88.4
CC(=O)O[C@@]12CO[C@@H]1CC[C@@]1(C)[C@@H]3O[C@H](CN(C)C)O[C@@H]3C3=C(C)[C@@H](OC(=O)[C@H](OC(=O)[C@H](F)CC(C)N(C)C)[C@@H](NC(=O)OC(C)(C)C)c4ncccc4F)C[C@@](O)([C@@H](OC(=O)c4ccccc4)[C@@H]12)C3(C)C.Cl (stereo partly shown)	%	95.5
CC(=O)O[C@H]1C(=O)[C@@]2(C)[C@H]([C@H](OC(=O)c3ccccc3)[C@]3(O)C[C@H](OC(=O)[C@H](OC(=O)C(F)CCN(C)C)[C@@H](NC(=O)c4ccccc4)c4ccccc4)C(C)=C1C3(C)C)[C@]1(OC(C)=O)CO[C@@H]1C[C@@H]2O.CS(=O)(=O)O (stereo partly shown)	%	96.8

Read the next record carefully.
Bench note: what Sampling time/Dissociation percent (%) 5 min did CO[C@H]1C(=O)[C@]2(C)[C@@H](OC)C[C@H]3OC[C@@]3(OC(C)=O)[C@H]2[C@H](OC(=O)c2ccccc2)[C@]2(O)C[C@H](OC(=O)[C@H](OC(=O)C(F)CCN(C)C)[C@@H](NC(=O)OC(C)(C)C)c3ccccc3)C(C)=C1C2(C)C.CS(=O)(=O)O (stereo partly shown) show?
88.6
